IC50 values for the compounds below.
Tested on: Trypanosoma brucei
Assay: Trypanosoma brucei 72 hour study
Format: functional, organism-based
Details: Trypanosoma brucei, 72 h
Write it as a number; the unit µM goes unstated.

query: What does the data say about its IC50? Entry: "CC(C)(C)C(=O)NCCc1ccn(-c2ccccc2)n1"
result: 2.22

query: # query: IC50 of entry Cc1cc(C)n(CCCn2cncc2-c2ccc3c(c2)CC(C)N3C)n1.Cl (stereo not drawn)
result: 28.9

query: For the compound shown here, CCCc1ccc(C(C)Nc2ncnc3c2CCNC3)cc1 (stereo not drawn) , give the reported IC50.
result: 20.2

query: IC50 lookup needed for CC(C)N1CCCC(C(=O)N2CCN(c3nsc4ccccc34)CC2)C1 (stereo not drawn) , thanks.
result: 20.3

query: Which IC50 is listed for Cc1cccc(CN2CCCCC2c2n[nH]cc2-c2cc(C)no2)c1.Cl (stereo not drawn) ?
result: 19.8

query: // lookup IC50 for "CN(C)c1ccc(-c2cc(C(=O)O)cc(S(=O)(=O)NC3CC3)c2)cc1"
result: 0.716

query: For the compound "COc1c(C)cnc(CN(C)C2CCCCC2)c1C" , what IC50 is on record?
result: 6.48

query: Endpoint output: IC50 of "CCN(Cc1c(F)cccc1Cl)c1cc(C2CCNCC2)nc(C)n1" . Value?
result: 4.96

* * *

Experiment: microbe, parasite or virus in culture
Conditions: Mycobacterium tuberculosis, 96 h, read-out: pIC50 (converted)
Readout Name: IC50

Study these solved cases before continuing.
>>> experimental_result("NCCn1nc(C2CCN(C(=O)Cc3ccccc3)C2)c2nccnc21 (stereo unspecified)")
"> 50.1 µM"
>>> experimental_result("Cc1nc(C2CCCN(C(=O)c3ccc(S(C)(=O)=O)cc3)C2)no1 (stereo unspecified)")
"> 50.1 µM"
>>> experimental_result("COc1cc(NC(=O)NCc2nncn2C)ccc1Br")
"> 501 µM"
>>> experimental_result("CCCC(=O)N(CCCN1CCOCC1)c1nc2c(C)c(C)ccc2s1")
"> 50.1 µM"
>>> experimental_result("O=C(Nc1cccc(CO)n1)Nc1ccccc1Cl")
"> 501 µM"

query: I am curious: what IC50 value has been reported for "Cc1nc2c(Nc3cccc(C#N)c3)nc(N)nc2n1C" ?
result: 4.14 µM

* * *

Experiment: microbe, parasite or virus in culture
Conditions: Mycobacterium tuberculosis, 96 h, read-out: pIC50 (converted)
Readout Name: IC50 (µM)
Just the number please, in µM, no unit attached.

Solved entries (count: 6):
>>> experimental_result("NCCS(=O)(=O)N1CCc2ccccc21")
240
>>> experimental_result("CC1=CC(=O)N(Cc2ccccc2)C1=O")
81.5
>>> experimental_result("COC(=O)c1ccc(CSc2n[nH]c(C)n2)o1")
181
>>> experimental_result("CC1CN(CCC(=O)NC(N)=O)CCO1 (stereo not drawn)")
286
>>> experimental_result("O=C(c1cc(-c2ccn(CC3CC3)n2)n2ccccc12)N1CCCO1")
1.05
>>> experimental_result("CCS(=O)(=O)NCCOc1ccc2c(c1)OCO2")
204

The record that follows has no IC50 shown yet.
query: Field request: IC50 | item: "CC(C)Oc1ccc(CNC(=O)N2CCCC2)cn1"
result: 118

* * *

Tested on: Schistosoma mansoni
Assay: High throughput screening of compounds against Schistosoma mansoni motility
Format: functional
Design: dose or concentration left out as unconfirmed
// class assignment uses Percent Effect with these ranges: low group = under -40%, middle group = from -40% up to -10%, high group = -10% and over

Please review the entries below; each comes with its answer.
>>> label("COc1cc(CN2CCN(c3cccc(OC)c3)C(=O)C2)cc(OC)c1")
"low group"
>>> label("COc1ncccc1C(=O)Nc1nc2c(s1)CN(S(=O)(=O)C1CC1)CC2")
"low group"
>>> label("CN(C)S(=O)(=O)N1CCN(c2nccc(C(F)(F)F)n2)CC1")
"low group"
>>> label("Cc1ccc(F)c(C(=O)N2CCN(S(C)(=O)=O)[C@@H](C)C2)c1")
"middle group"
>>> label("Cc1nn(C)c(N(C)C)c1CNCC(O)COc1ccc(F)cc1 (centres undefined)")
"low group"

query: Which class holds "O=S(=O)(c1cccnc1)N1CCN(CCn2ccnc2)CC1" ?
result: middle group

* * *

Assay: In vitro enzyme assay to detect hydrolysis of chlorophenol red-beta-D-[…] directly proportional to the number of Toxoplasma stably expressing beta-galactosidase
Assay type: functional, organism-based, Toxoplasma gondii
Conditions: Toxoplasma gondii
Readout Name: IC50

Example entries and their recorded answers appear below.
>>> experimental_result("COc1ccc(-c2cncc(N)c2)cc1CO")
"> 50.1 µM"
>>> experimental_result("NC(=O)CCc1ccc(Cl)s1")
"> 50.1 µM"
>>> experimental_result("CCn1c(SCC(=O)O)nnc1C(C)NC(=O)c1ccc(Cl)cc1 (configuration not stated)")
"> 50.1 µM"

query: Need IC50 of COc1ccc(C2=NOC(C(=O)N3CCCc4ccccc43)C2)cc1 (configuration not stated) , thanks.
result: 27.9 µM

query: Fill blank: measured IC50 of the molecule "CCn1cc(NC(=O)c2cc(C)nc(N3CCOCC3)n2)cn1" is ____.
result: > 25.1 µM

query: Which IC50 is reported for this molecule? Cc1ccc(CNC(=O)C2CCCCC(=O)N2)o1 (configuration not stated)
result: > 50.1 µM

query: Query (molecule): Cc1ccc(C(=O)N2CCN(C(C)C(N)=O)CC2)s1 (configuration not stated) ; field requested: IC50
result: > 50.1 µM

query: Find the recorded IC50 belonging to "CCCn1c(N2CCCC2)nc2c(C)nn(C)c2c1=O" and report it.
result: > 50.1 µM

query: Which IC50 is reported for this molecule? "O=C1COC2(CCN(S(=O)(=O)C3CC3)CC2)CN1c1cccnc1"
result: > 50.1 µM

query: What IC50 value was documented for this molecule, "Cc1cc(NCCO)nc(N2CCC(Cc3ccccc3)CC2)c1C#N" ?
result: 10.7 µM

query: # input molecule: CCNC1CCS(=O)(=O)C1 (configuration not stated) ; wanted: its IC50
result: > 50.1 µM

query: For the molecule "Cc1ccc(-c2cc(CNc3ncnc4c3CCNCC4)no2)cc1" , what IC50 is on record?
result: 9.58 µM

* * *

Test: microbe, parasite or virus in culture
Settings: Mycobacterium tuberculosis, 72 h, read-out: pIC50 (converted)
Readout Name: IC50 (µM)
Your answer should be a plain number; it is taken to be in µM.

As a guide, the following entries are already answered.
>>> experimental_result("CCC(C)Oc1cc(C(=O)NCC2(O)CCC2)ccn1 (configuration not stated)")
62.8
>>> experimental_result("COc1ccc(Br)c(S(=O)(=O)N(C)C)c1")
358
>>> experimental_result("CC(C)Sc1ccccc1NS(=O)(=O)N(C)C")
173
>>> experimental_result("FC(F)Oc1cccc(N2CCNCC2)c1")
147
>>> experimental_result("NCCC1CN(Cc2cc3ccccc3s2)CCO1 (configuration not stated)")
308
>>> experimental_result("CC(OC(=O)c1ccc(C(F)(F)F)cc1)C(N)=O (configuration not stated)")
229

query: Given the entry "CN(C)S(=O)(=O)NC(c1ccccc1)c1ccccc1" , report its measured IC50.
result: 195

query: Can you look up the measured IC50 of "COc1ccc(Br)c(CN)c1" for me?
result: 116

query: Data request, read-out IC50, for "CC(C)N(C)S(=O)(=O)NCCc1cccs1"
result: 182

query: I have this compound here, CC(C)Oc1ccc(C(CN)N(C)C)cc1 (configuration not stated) , and I need its recorded IC50.
result: 133

query: Entry under review: "O=C(c1cccc(F)c1)N1CCN(c2nccs2)CC1" . Reported IC50?
result: 228

query: IC50 lookup needed for c1ccc(C2CNCCCO2)cc1 (configuration not stated) , thanks.
result: 166

query: Reported IC50 for "Cc1ccccc1-n1nnnc1SCC(=O)NC1CC1" : what is it?
result: 199

query: Please report the recorded IC50 for CC1=NOC(C(=O)NCCc2nc3c(s2)CCCC3)C1 (configuration not stated) .
result: 169

query: Quick check: IC50 of "CC(C)c1ccoc1C(=O)N(C)c1cc(C#N)ccn1" ?
result: 140

query: Please report the recorded IC50 for "N#CCCCn1nnc(-c2ccccc2)n1" .
result: 191

query: What IC50 value was documented for this compound, "O=C(Cn1cnnn1)NCC1(c2ccccc2)CCC1" ?
result: 304

* * *

Assay: In vitro enzyme assay to detect hydrolysis of chlorophenol red-beta-D-[…] directly proportional to the number of Toxoplasma stably expressing beta-galactosidase
Assay type: functional, organism-based, Toxoplasma gondii
We begin with a simple list: items and their reported pIC50.
I only need the number, thanks.

>>> experimental_result("CCCc1nc2c(c(C)c(C)n2Cc2ccccn2)c(N)c1CC")
4.935

Let's switch to this compound now.
query: Item "N#Cc1c(Cl)nsc1NCc1cccnc1OC1CCCC1" has what recorded pIC50?
result: 5.095
